molecular target: Sigma non-opioid intracellular receptor 1 (Rattus norvegicus, UniProt Q9R0C9); assay: Displacement of […] from sigma1 receptor in Sprague-Dawley rat cortical membranes incubated for 2 hrs by liquid scintillation counting based competitive radioligand binding assay; conditions: read-out: Ki(app)
Sequence (Q9R0C9 whole entry): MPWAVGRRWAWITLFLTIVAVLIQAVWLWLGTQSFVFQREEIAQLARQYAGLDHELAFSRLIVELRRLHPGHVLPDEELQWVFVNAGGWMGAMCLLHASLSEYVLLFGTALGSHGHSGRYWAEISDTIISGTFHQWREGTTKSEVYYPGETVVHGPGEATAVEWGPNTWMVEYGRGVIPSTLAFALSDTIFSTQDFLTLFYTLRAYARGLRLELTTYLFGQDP
reported-metric: Ki (nM)
Numbers only, in nM.

Recorded Ki, per entry:
INSERT INTO results (molecule, reported_metric, quantitative_readout) VALUES
  ('O=C(c1ccc(F)cc1)C1CCN([C@@H]2C[C@H](OCc3ccc(F)cc3)CC[C@H]2O)CC1 (racemic)', 'Ki', 59.4),
  ('O[C@@H]1CCCC[C@H]1N1CCC(Cc2ccccc2)CC1 (racemic)', 'Ki', 20.1),
  ('O[C@@H]1C[C@@H](OCc2ccc(F)cc2)CC[C@H]1N1CCC(c2ccncc2)CC1 (racemic)', 'Ki', 41.1);

Provide the documented Ki with Sigma non-opioid intracellular receptor 1 (Rattus norvegicus, UniProt Q9R0C9) as the system for O=C(c1ccc(F)cc1)C1CCN([C@@H]2CC[C@H](OCc3ccc(F)cc3)C[C@H]2O)CC1 (racemic)
65.4

====

I'd appreciate it if you could supply Ki values for the items below.
target: Sigma non-opioid intracellular receptor 1 (Rattus norvegicus); test: Displacement of […] from sigma1 receptor in Sprague-Dawley rat cortical membranes incubated for 2 hrs by liquid scintillation counting based competitive radioligand binding assay; details: read-out: Ki(app)
Give bare numbers, in nM.

Recorded Ki, per entry:
INSERT INTO measurements (molecule, tested_target, quantitative_readout) VALUES
  ('CC(=O)C1(c2ccccc2)CCN([C@@H]2C[C@H](OCc3ccc(F)cc3)CC[C@H]2O)CC1 (racemic)', 'Sigma non-opioid intracellular receptor 1 (Rattus norvegicus)', 63.1),
  ('CC(=O)C1(c2ccccc2)CCN([C@@H]2CC[C@H](OCc3ccc(F)cc3)C[C@H]2O)CC1 (racemic)', 'Sigma non-opioid intracellular receptor 1 (Rattus norvegicus)', 120),
  ('O[C@@H]1CC[C@@H](OCc2ccc(F)cc2)C[C@H]1N1CCc2ccccc2C1 (racemic)', 'Sigma non-opioid intracellular receptor 1 (Rattus norvegicus)', 59),
  ('O[C@@H]1CC[C@@H](OCc2ccc(F)cc2)C[C@H]1N1CCN(c2ccccc2)CC1 (racemic)', 'Sigma non-opioid intracellular receptor 1 (Rattus norvegicus)', 103),
  ('O[C@@H]1C[C@@H](OCc2ccc(F)cc2)CC[C@H]1N1CCN(c2ccccc2)CC1 (racemic)', 'Sigma non-opioid intracellular receptor 1 (Rattus norvegicus)', 189),
  ('O[C@@H]1C[C@@H](OCc2ccc(F)cc2)CC[C@H]1N1CCC(O)(c2ccccc2)CC1 (racemic)', 'Sigma non-opioid intracellular receptor 1 (Rattus norvegicus)', 31);

Now for the molecule whose Ki we want.
Provide the documented Ki with Sigma non-opioid intracellular receptor 1 (Rattus norvegicus) as the system for O[C@@H]1CC[C@@H](OCc2ccc(F)cc2)C[C@H]1N1CCC(c2ccccc2)CC1 (racemic)
16.6

====

I'd appreciate it if you could supply Ratio Ki values for the items below.
system: PC-12; experiment: Selectivity index, ratio of Ki for sigma1 receptor in Sprague-Dawley rat cortical membranes to Ki for rat VAChT expressed in PC12 cell membranes; format: cell-based

Recorded Ratio Ki, per entry:
INSERT INTO measurements (compound, result) VALUES
  ('O[C@@H]1C[C@@H](OCc2ccc(F)cc2)CC[C@H]1N1CC=C(c2ccccc2)CC1 (racemic)', '< 0.1'),
  ('O=C(c1ccc(F)cc1)C1CCN([C@@H]2CC[C@H](OCc3ccc(F)cc3)C[C@H]2O)CC1 (racemic)', '< 0.1'),
  ('O[C@@H]1C[C@@H](OCc2ccc(F)cc2)CC[C@H]1N1CCN(c2ccccc2)CC1 (racemic)', '< 0.1'),
  ('O=C(c1ccc(F)cc1)C1CCN([C@@H]2CCCC[C@H]2O)CC1 (racemic)', '< 0.1'),
  ('CC(=O)C1(c2ccccc2)CCN([C@@H]2CCCC[C@H]2O)CC1 (racemic)', '< 0.1'),
  ('O[C@@H]1CC[C@@H](OCc2ccc(F)cc2)C[C@H]1N1CC=C(c2ccccc2)CC1 (racemic)', '< 0.1'),
  ('O[C@@H]1CCCC[C@H]1N1CCC(Cc2ccccc2)CC1 (racemic)', '< 0.1'),
  ('O=C(c1ccc(F)cc1)C1CCN([C@@H]2C[C@H](OCc3ccc(F)cc3)CC[C@H]2O)CC1 (racemic)', '< 0.1');

Query (compound): O[C@@H]1C[C@@H](OCc2ccc(F)cc2)CC[C@H]1N1CCC(Cc2ccccc2)CC1 (racemic) ; field requested: Ratio Ki
< 0.1
